Quick reference for Median fluorescence, Frizzled CRD overexpressed on CHO cells: FZD7 among some molecules
measurementTarget: T1, FZD7 CRD (Homo sapiens, UniProt O75084)
T1 construct: D45-S169; GPI anchor signal (C); expressed in transfected cells; host or cells: CHO cells, lentiviral pLenti-puro
testMethodNotes: Flow cytometry of anti-FZD5 Fab binding to CHO cells overexpressing Frizzled CRD
Could you respond with only the numeric value?

Study these solved cases before continuing.
- Fab-2900: anti-FZD5 Fab with antibody variable region Fv-2900; CDR SEQ ID NOs: 35, 36, 39, 78, 115, 153 (antibody, V domains shown) VH: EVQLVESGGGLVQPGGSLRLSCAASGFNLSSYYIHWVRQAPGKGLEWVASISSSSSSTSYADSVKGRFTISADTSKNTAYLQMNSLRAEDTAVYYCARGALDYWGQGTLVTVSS VL: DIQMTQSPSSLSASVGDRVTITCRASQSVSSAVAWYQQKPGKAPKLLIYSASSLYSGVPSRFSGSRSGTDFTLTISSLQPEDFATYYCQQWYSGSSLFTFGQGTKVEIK: 8.98
- Fab-2925: anti-FZD5 Fab with antibody variable region Fv-2925; CDR SEQ ID NOs: 35, 36, 64, 102, 140, 172 (antibody, V domains shown) VH: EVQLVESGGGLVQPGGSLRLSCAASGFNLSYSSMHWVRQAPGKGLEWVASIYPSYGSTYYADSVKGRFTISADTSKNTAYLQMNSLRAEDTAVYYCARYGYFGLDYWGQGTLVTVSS VL: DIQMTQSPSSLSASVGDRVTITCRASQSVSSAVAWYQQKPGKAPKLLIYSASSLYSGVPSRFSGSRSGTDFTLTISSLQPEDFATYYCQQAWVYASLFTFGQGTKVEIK: 24.14

Now for the molecule whose Median fluorescence, Frizzled CRD overexpressed on CHO cells: FZD7 we want.
State the recorded Median fluorescence, Frizzled CRD overexpressed on CHO cells: FZD7 for this entry: Fab-2905: anti-FZD5 Fab with antibody variable region Fv-2905; CDR SEQ ID NOs: 35, 36, 44, 83, 120, 157 (antibody, V domains shown) VH: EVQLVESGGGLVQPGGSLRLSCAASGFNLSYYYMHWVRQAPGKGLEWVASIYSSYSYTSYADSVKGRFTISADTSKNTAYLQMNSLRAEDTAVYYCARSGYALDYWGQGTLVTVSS VL: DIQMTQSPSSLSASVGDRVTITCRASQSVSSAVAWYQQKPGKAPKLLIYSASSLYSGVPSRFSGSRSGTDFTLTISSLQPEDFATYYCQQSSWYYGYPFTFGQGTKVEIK
3.43
